The reader will find IC50 measurements below, all made with Human β2 adrenoceptor (Homo sapiens, UniProt P07550).
Sequence (P07550 whole entry): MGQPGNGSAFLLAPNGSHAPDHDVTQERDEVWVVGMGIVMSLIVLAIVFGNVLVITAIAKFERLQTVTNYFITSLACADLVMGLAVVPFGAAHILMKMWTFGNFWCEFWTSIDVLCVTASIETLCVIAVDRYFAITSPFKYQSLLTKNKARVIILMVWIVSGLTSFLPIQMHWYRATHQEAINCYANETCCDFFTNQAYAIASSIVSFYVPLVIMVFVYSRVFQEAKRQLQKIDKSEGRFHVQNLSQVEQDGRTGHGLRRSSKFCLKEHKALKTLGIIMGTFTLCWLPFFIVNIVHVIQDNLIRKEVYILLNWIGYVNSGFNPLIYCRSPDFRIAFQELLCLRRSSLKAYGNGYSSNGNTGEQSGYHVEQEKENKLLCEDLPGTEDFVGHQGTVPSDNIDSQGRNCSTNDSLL

Examples with answers:
O=C(c1ccc(CNC[C@H](O)c2ccc(O)c3[nH]c(=O)ccc23)cc1)N1C[C@H]2CCN(C(=O)COc3cccc([C@](O)(C(=O)OCC4CCN(Cc5ccccc5)CC4)c4ccccc4)c3)[C@H]2C1 : 0.3 to 3 nM
O=C(COc1cccc([C@](O)(C(=O)OCC2CCN(Cc3ccccc3)CC2)c2ccccc2)c1)N1CCC(CCNC[C@H](O)c2ccc(O)c3[nH]c(=O)ccc23)CC1 [Compound 36A] : 0.3 to 3 nM
O=C(COc1cccc([C@](O)(C(=O)OCC2CCN(Cc3ccccc3)CC2)c2ccccc2)c1)N[C@H]1C[C@H](NC(=O)c2ccc(CNC[C@H](O)c3ccc(O)c4[nH]c(=O)ccc34)c(F)c2)C1 : < 0.3 nM
O=C(NCCCOc1cccc([C@](O)(C(=O)OCC2CCN(Cc3ccccc3)CC2)c2ccccc2)c1)c1ccc(CNC[C@H](O)c2ccc(O)c3[nH]c(=O)ccc23)cc1Cl [Compound 32H] : < 0.3 nM

IC50 on Human β2 adrenoceptor (Homo sapiens, UniProt P07550) for CC(C)Oc1cc(C(=O)NCCCOc2cccc([C@](O)(C(=O)OCC3CCN(Cc4ccccc4)CC3)c3ccccc3)c2)ccc1CNC[C@H](O)c1ccc(O)c2[nH]c(=O)ccc12 [Compound 32G] is 0.3 to 3 nM

IC50 on Human β2 adrenoceptor (Homo sapiens, UniProt P07550) for O=C(NCCCOc1cccc([C@](O)(C(=O)OCC2CCN(Cc3ccccc3)CC2)c2ccccc2)c1)c1ccc(CNC[C@H](O)c2ccc(O)c3[nH]c(=O)ccc23)cc1 is < 0.3 nM

IC50 on Human β2 adrenoceptor (Homo sapiens, UniProt P07550) for O=C(COc1cccc([C@](O)(C(=O)OCC2CCN(Cc3ccccc3)CC2)c2ccccc2)c1)N[C@H]1C[C@H](NC(=O)c2ccc(CNC[C@H](O)c3ccc(O)c4[nH]c(=O)ccc34)cc2Cl)C1 is < 0.3 nM

IC50 on Human β2 adrenoceptor (Homo sapiens, UniProt P07550) for O=C(NCCCOc1cccc([C@](O)(C(=O)OC2CCN(Cc3ccccc3)CC2)c2ccccc2)c1)c1ccc(CNC[C@H](O)c2ccc(O)c3[nH]c(=O)ccc23)cc1 is < 0.3 nM

IC50 on Human β2 adrenoceptor (Homo sapiens, UniProt P07550) for O=C(c1ccc(CCNC[C@H](O)c2ccc(O)c3[nH]c(=O)ccc23)cc1)N1CC(COc2cccc([C@](O)(C(=O)OCC3CCN(Cc4ccccc4)CC3)c3ccccc3)c2)C1 is < 0.3 nM

IC50 on Human β2 adrenoceptor (Homo sapiens, UniProt P07550) for O=C(c1ccc(CCNC[C@H](O)c2ccc(O)c3[nH]c(=O)ccc23)cc1)N1CCC2(CC1)CN(C(=O)c1ccc(COc3cccc([C@](O)(C(=O)OCC4CCN(Cc5ccccc5)CC4)c4ccccc4)c3)cc1)C2 is < 0.3 nM

IC50 on Human β2 adrenoceptor (Homo sapiens, UniProt P07550) for O=C(NC1CCN(C(=O)COc2cccc([C@](O)(C(=O)OCC3CCN(Cc4ccccc4)CC3)c3ccccc3)c2)CC1)c1ccc(CNC[C@H](O)c2ccc(O)c3[nH]c(=O)ccc23)cc1 is < 0.3 nM

###

# Subject Of Test: Human M3 receptor (Homo sapiens)
# Sequence (P20309 whole entry): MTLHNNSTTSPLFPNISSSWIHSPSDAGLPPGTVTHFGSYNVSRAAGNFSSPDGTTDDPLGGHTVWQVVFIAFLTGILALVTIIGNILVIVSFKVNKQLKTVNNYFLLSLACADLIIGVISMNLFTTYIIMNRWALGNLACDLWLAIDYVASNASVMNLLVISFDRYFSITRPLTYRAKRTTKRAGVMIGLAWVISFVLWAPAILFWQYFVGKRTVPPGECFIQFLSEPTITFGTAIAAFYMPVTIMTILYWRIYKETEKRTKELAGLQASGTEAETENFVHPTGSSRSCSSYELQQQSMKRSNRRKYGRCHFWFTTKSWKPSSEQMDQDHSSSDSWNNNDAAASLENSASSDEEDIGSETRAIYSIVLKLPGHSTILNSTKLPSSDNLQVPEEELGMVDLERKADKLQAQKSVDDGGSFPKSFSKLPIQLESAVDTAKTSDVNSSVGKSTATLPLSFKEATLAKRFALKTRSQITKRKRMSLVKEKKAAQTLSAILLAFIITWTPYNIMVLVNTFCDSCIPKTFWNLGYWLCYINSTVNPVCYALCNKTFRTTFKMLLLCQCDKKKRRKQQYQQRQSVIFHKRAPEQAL
Property Measured: IC50

Examples with answers:
O=C(COc1cccc([C@](O)(C(=O)OCC2CCN(Cc3ccccc3)CC2)c2ccccc2)c1)N1CCC(CNC[C@H](O)c2ccc(O)c3[nH]c(=O)ccc23)CC1 : < 0.3 nM
O=C(OCC1CCN(Cc2ccccc2)CC1)[C@@](O)(c1ccccc1)c1cccc(OCCCCCNC[C@H](O)c2ccc(O)c3[nH]c(=O)ccc23)c1 : > 3 nM
O=C(NCC(=O)N1CCC(COc2cccc([C@](O)(C(=O)OCC3CCN(Cc4ccccc4)CC3)c3ccccc3)c2)CC1)c1ccc(CNC[C@H](O)c2ccc(O)c3[nH]c(=O)ccc23)cc1 : < 0.3 nM
O=C(NCCCOc1cccc([C@](O)(C(=O)OCC2CCN(Cc3ccccc3)CC2)c2ccccc2)c1)c1ccc(CNC[C@H](O)c2ccc(O)c3[nH]c(=O)ccc23)cc1 : 0.3 to 3 nM

IC50 on Human M3 receptor (Homo sapiens) for O=C(c1ccc(CNC[C@H](O)c2ccc(O)c3[nH]c(=O)ccc23)cc1)N1CC(COc2cccc([C@](O)(C(=O)OCC3CCN(Cc4ccccc4)CC3)c3ccccc3)c2)C1 is 0.3 to 3 nM

###

The reader will find IC50 measurements below, all made with Human β2 adrenoceptor (Homo sapiens).

Examples with answers:
O=C(c1ccc(CCNC[C@H](O)c2ccc(O)c3[nH]c(=O)ccc23)cc1)N1CC2(C1)CN(C(=O)c1ccc(COc3cccc([C@](O)(C(=O)OCC4CCN(Cc5ccccc5)CC4)c4ccccc4)c3)cc1)C2 : < 0.3 nM
COc1c(CNC[C@H](O)c2ccc(O)c3[nH]c(=O)ccc23)ccc(C(=O)NCCCOc2cccc([C@](O)(C(=O)OCC3CCN(Cc4ccccc4)CC3)c3ccccc3)c2)c1F [Compound 32F] : < 0.3 nM
COc1cc(CNC[C@H](O)c2ccc(O)c3[nH]c(=O)ccc23)ccc1C(=O)N[C@H]1C[C@H](NC(=O)COc2cccc([C@](O)(C(=O)OCC3CCN(Cc4ccccc4)CC3)c3ccccc3)c2)C1 : 0.3 to 3 nM
O=C(N[C@H]1C[C@H](NC(=O)c2ccc(COc3cccc([C@](O)(C(=O)OCC4CCN(Cc5ccccc5)CC4)c4ccccc4)c3)cc2)C1)c1ccc(CCNC[C@H](O)c2ccc(O)c3[nH]c(=O)ccc23)cc1 : 0.3 to 3 nM

Could you now look at the following compound, please?
Kindly note the recorded IC50 for CN(C)CCOC(=O)[C@](O)(c1ccccc1)c1cccc(OCCCCCNC[C@H](O)c2ccc(O)c3[nH]c(=O)ccc23)c1 , which is 0.3 to 3 nM

###

# Subject Of Test: Human β2 adrenoceptor (Homo sapiens)
Property Measured: IC50

Examples with answers:
O=C(COc1cccc([C@](O)(C(=O)OCC2CCN(Cc3ccccc3)CC2)c2ccccc2)c1)N1CCC(CNC[C@H](O)c2ccc(O)c3[nH]c(=O)ccc23)CC1 : < 0.3 nM
O=C(COc1cccc([C@](O)(C(=O)OCC2CCN(Cc3ccccc3)CC2)c2ccccc2)c1)NC1CCN(C(=O)c2ccc(CNC[C@H](O)c3ccc(O)c4[nH]c(=O)ccc34)cc2)CC1 : 0.3 to 3 nM
O=C(COc1cccc([C@](O)(C(=O)OCC2CCN(Cc3ccccc3)CC2)c2ccccc2)c1)N[C@H]1C[C@H](NC(=O)c2ccc(CNC[C@H](O)c3ccc(O)c4[nH]c(=O)ccc34)c(O)c2)C1 : < 0.3 nM
O=C(NCc1ccc(COc2cccc([C@](O)(C(=O)OC3CCN(Cc4ccccc4)CC3)c3ccccc3)c2)cc1)Nc1ccc(CNC[C@H](O)c2ccc(O)c3[nH]c(=O)ccc23)cc1 : 0.3 to 3 nM

Could you now look at the following compound, please?
IC50 on Human β2 adrenoceptor (Homo sapiens) for O=C(NC1CN(C(=O)COc2cccc([C@](O)(C(=O)OCC3CCN(Cc4ccccc4)CC3)c3ccccc3)c2)C1)c1ccc(CCNC[C@H](O)c2ccc(O)c3[nH]c(=O)ccc23)cc1 is < 0.3 nM

###

The entries below are paired with their reported IC50.
# Subject Of Test: Human β2 adrenoceptor (Homo sapiens, UniProt P07550)

Kindly note the recorded IC50 for O=C(OCC1CCN(Cc2ccccc2)CC1)[C@@](O)(c1ccccc1)c1cccc(OCCCCCNC[C@H](O)c2ccc(O)c3[nH]c(=O)ccc23)c1 , which is < 300 pM

Kindly note the recorded IC50 for COc1cc(C(=O)NCC2CCN(C(=O)COc3cccc([C@](O)(C(=O)OCC4CCN(Cc5ccccc5)CC4)c4ccccc4)c3)CC2)ccc1CNC[C@H](O)c1ccc(O)c2[nH]c(=O)ccc12 , which is < 300 pM

Kindly note the recorded IC50 for O=C(N[C@@H]1CCCN(C(=O)COc2cccc([C@](O)(C(=O)OCC3CCN(Cc4ccccc4)CC3)c3ccccc3)c2)C1)c1ccc(CNC[C@H](O)c2ccc(O)c3[nH]c(=O)ccc23)cc1 , which is > 3000 pM

Kindly note the recorded IC50 for O=C(N[C@H]1C[C@H](NC(=O)c2ccc(COc3cccc([C@](O)(C(=O)OCC4CCN(Cc5ccccc5)CC4)c4ccccc4)c3)cc2)C1)c1ccc(CNC[C@H](O)c2ccc(O)c3[nH]c(=O)ccc23)cc1 , which is 300 to 3000 pM

###

# Subject Of Test: Human M3 receptor (Homo sapiens)
The entries below are paired with their reported IC50.

Examples with answers:
O=C(COc1cccc([C@](O)(C(=O)OCC2CCN(Cc3ccccc3)CC2)c2ccccc2)c1)N[C@H]1CCN(C(=O)c2ccc(CCNC[C@H](O)c3ccc(O)c4[nH]c(=O)ccc34)cc2)C1 [Compound 107] : 0.3 to 3 nM
COc1cc(C(=O)N[C@H]2C[C@H](NC(=O)c3ccc(COc4cccc([C@](O)(C(=O)OCC5CCN(Cc6ccccc6)CC5)c5ccccc5)c4)cc3)C2)ccc1CNC[C@H](O)c1ccc(O)c2[nH]c(=O)ccc12 [Compound 124] : 0.3 to 3 nM
O=C(COc1cccc([C@](O)(C(=O)OCC2CCN(Cc3ccccc3)CC2)c2ccccc2)c1)N1CCC2(CC1)CCN(C(=O)c1ccc(CNC[C@H](O)c3ccc(O)c4[nH]c(=O)ccc34)cc1)CC2 [Compound 64] : < 0.3 nM
O=C(COc1cccc([C@](O)(C(=O)OCC2CCN(Cc3ccccc3)CC2)c2ccccc2)c1)N1CC2(C1)CN(C(=O)c1ccc(CCNC[C@H](O)c3ccc(O)c4[nH]c(=O)ccc34)cc1)C2 [Compound 93] : 0.3 to 3 nM

Could you now look at the following molecule, please?
Kindly note the recorded IC50 for O=C(COc1cccc([C@](O)(C(=O)OCC2CCN(Cc3ccccc3)CC2)c2ccccc2)c1)N1CCCC2(CCN(C(=O)c3ccc(CCNC[C@H](O)c4ccc(O)c5[nH]c(=O)ccc45)cc3)CC2)C1 [Compound 99] , which is 0.3 to 3 nM
